system: PC-3 prostate; assay: NCI tumour cell line growth inhibition, 48 h
Here the recorded TGI is given for each entry.
quantity.kind: TGI

1) COC1=C(OC)C(=O)C(Sc2ccc3ccccc3c2)=CC1=O: 26.1 µM
2) O=C(O)C1CCCCN1C(=O)Cc1c[nH]c2ccccc12 (stereo not given): > 100 µM
3) CC1=C[C@@H](C)C[C@]2(C)CC[C@H](O2)[C@]23CC[C@](CO)(C[C@H](O2)[C@@H]2O[C@@](C)(CC2=O)[C@@H](O)[C@H]2CC[C@@]4(CCC[C@@H](O4)[C@H](C)C(=O)O[C@H]4C[C@H]([C@]5(O)OCC[C@H](C)[C@@H]5O)O[C@H]4C=C1)O2)O3: > 10 µM
4) Nc1cc(S(=O)(=O)O)cc2ccc(S(=O)(=O)O)cc12: > 100 µM
5) CS(C)(=O)=Nn1c(=O)n2n(c1=O)C1c3ccccc3C2c2ccccc21: > 100 µM
6) CC1=CC(O)C(C(O)(C(F)(F)F)C(F)(F)F)C(C)(C)C1 (stereo not given): > 10 µM
7) O=C1/C(=C/c2[nH]ncc2-c2ccc(Cl)cc2)C(=O)N(c2ccccc2)C1c1ccccc1 (stereo not given): > 100 µM
8) CN(C)C=NC1CCC(C(C)(C)C)CC1 (stereo not given): 30.3 µM
9) N#Cc1ncn(CCO)c1N: > 100 µM
10) O=C1C=CC(=Nc2cccc3c(N=C4C=CC(=O)O4)cccc23)O1: > 100 µM
11) Cc1cc(S(=O)(=O)NC2=NCCN2Cc2ccccc2)c(S)cc1Cl: > 100 µM
12) Cc1nc(C)c(N2CCN(C(=O)O)CC2)c(=O)[nH]1: > 100 µM
13) CCOC(=O)/C(C#N)=C1\SS/C(=C(/C#N)C(=O)OCC)S1: 40.7 µM
14) O=[N+]([O-])c1ccc(C2=NOC(c3ccc(Cl)cc3)N2C23CC4CC(CC(C4)C2)C3)cc1 (stereo not given): > 100 µM
15) Nc1nnnc2nc[nH]c12: > 100 µM
16) CN1N=C(c2ccccc2)C(C(c2ccccc2[N+](=O)[O-])C2C(=O)N(C)N=C2c2ccccc2)C1=O (stereo not given): > 100 µM
17) CCOC(=O)c1c(NC(=O)c2ccccc2)sc2c3c(ccc12)OCN(C)C3: 3 µM
18) COc1ccc(Cl)cc1Nc1nc(C(F)(F)F)ccc1C(=O)N/N=C/c1cccnc1: > 100 µM
19) CC(C)(C)NC(=O)[C@H]1CC[C@H]2[C@@H]3CC[C@H]4NC(=O)C=C[C@]4(C)[C@H]3CC[C@]12C: > 100 µM
20) CCN(CC)c1ccc2nc3c4ccccc4c(=O)cc-3n(-c3ccccc3)c2c1: 7.58 µM

====

tested on: SW-620 colon; test: NCI tumour cell line growth inhibition, 48 h
Here the recorded TGI is given for each entry.
quantity.kind: TGI

1) COc1ccc(-c2[nH]nc(N)c2-c2cc(OC)c3c(c2)OCO3)cc1: > 100 µM
2) OCc1ccc(N2CCc3cc(F)ccc3C2)cc1Cl: 15.8 µM
3) NC(=O)c1nnsc1NN=O: > 100 µM
4) CC(=O)Oc1c(OC(C)C)c(C)c(O[Si](C(C)C)(C(C)C)C(C)C)c2[nH]c3ccccc3c12: > 100 µM
5) Clc1ccc(CCc2ccncn2)c(Cl)c1: > 100 µM
6) O=C1C2c3[nH]c4ccccc4c3C3CCCCCC3C2C(=O)N1c1ccccc1 (stereo unspecified): > 100 µM
7) O=C(Cc1csc2nc(-c3ccc(Cl)cc3)cn12)N/N=C/c1ccccc1O: > 100 µM
8) Cc1ccc(-c2nc3cc(Cl)c(Cl)cc3nc2C#N)cc1: > 100 µM
9) CN1N=C(c2ccccc2)C(C(c2ccccc2[N+](=O)[O-])C2C(=O)N(C)N=C2c2ccccc2)C1=O (stereo unspecified): > 100 µM
10) C[C@@H]1OC2(O)[C@H]3CCCN3S(=O)(=O)CCN2C1=O (stereo partly specified): > 100 µM
11) CC1=CC(O)C(C(O)(C(F)(F)F)C(F)(F)F)C(C)(C)C1 (stereo unspecified): > 10 µM
12) Cc1ccc(NC(=O)Nc2c(Cl)cccc2Cl)cn1: > 100 µM
13) O=C(Nc1cccc(-n2cc(-c3ccncc3)c(-c3ccc(O)c(Cl)c3)n2)c1)c1cc(C(F)(F)F)cc(C(F)(F)F)c1: > 50 µM
14) O=C(/C=C1\N=C(c2ccccc2)N(c2nc3c(Cl)cc(Cl)cc3s2)C1=O)/C=C/c1ccccc1: > 100 µM
15) COc1ccc(Cn2cc3c(c2)-c2oncc2CC3)cc1OC: > 50 µM
16) CCCCCCCCCC(CCCC(O)CC(=O)O)OC1OC(COC2OC(C)C(OC(C)=O)C(O)C2O)C(O)C(O)C1OC1OC(CO)C(O)C(O)C1OC1OC(C)C(OC(=O)CC(C)C)C(O)C1O (stereo unspecified): > 35 µM
17) CSC1=C(C(=O)Nc2ccc(C)cc2)C(N)=NC1=O: > 100 µM
18) C/C(=N\NC(=S)NC(CCC(=O)O)C(=O)O)c1cnccn1 (stereo unspecified): > 100 µM
19) COc1c(O)cc2c(c1O)C(=O)C1=C(CCCC1)C2=O: > 100 µM
20) C[C@@H]1CCC2C(C)(C)C(/C=C\C=O)C3(C)OC213 (stereo partly specified): > 100 µM
21) NC(=O)C(=CNC(=S)Nc1ccc(S(=O)(=O)Nc2ccccn2)cc1)C(N)=O: > 100 µM

====

test system: M14 melanoma; assay: NCI tumour cell line growth inhibition, 48 h; in the data active means GI50 below about 0.43 µM; inactive means the rest
Outcome codes: yes = active, no = inactive

1) O=C(Nc1ccccc1C(F)(F)F)c1ccc(NC2=C(Cl)C(=O)N(Cc3ccccc3)C2=O)cc1: no
2) CCCCCC[C@@H](C)Nc1nc2ccccc2c2occc12: no
3) N#Cc1ccccc1C#C/C=C\C#Cc1ccccc1N: yes
4) COc1ccccc1/C=C/C1=C(C)CCC(c2ccccc2OC)C1C (configuration not stated): yes
5) COc1ccc2nc3cc([N+](=O)[O-])ccc3c(NNc3ccccc3)c2c1: no
6) COc1ccc(C(=O)O[C@H]2[C@H](O[C@H]3[C@@H](O)COC(O[C@H]4C[C@H]5[C@@H]6CC=C7C[C@@H](O)CC[C@]7(C)[C@H]6CC[C@]5(C)[C@H]4[C@H](C)C(=O)CCC(C)C)[C@@H]3OC(C)=O)OC[C@@H](O)[C@@H]2O)c(C)c1 (some centres not stated): yes
7) COc1cccc(C2=C(c3cn(C)c4cc(F)ccc34)C(=O)NC2=O)c1: no

====

test system: ACHN renal; assay: NCI tumour cell line growth inhibition, 48 h
quantity.kind: TGI

1) Cc1ccc(NC(=O)CSc2nnc(Cc3ccccc3)o2)cc1: > 100 µM
2) N=c1ccc2nc(N)nn(O)c-2c1: > 100 µM
3) CCOC(=O)c1sc2c(c1O)c(=O)n(-c1ccccc1)c(=S)n2-c1ccccc1: > 100 µM
4) Cc1ccc(-c2nc(N3CCNCC3)c3oc(-c4ccccc4)nc3n2)cc1: 3.12 µM
5) CN(C)Cc1ccc(C(C)(C)C)cc1-c1cc(C(C)(C)C)ccc1CN(C)C: > 100 µM
6) NC(N)=NS(=O)(=O)c1ccc(NNC(=O)c2cccc3c(=O)c4ccccc4[nH]c23)cc1: 61.4 µM
7) Cc1cc2ccc(OC(=O)c3ccc(N=C(N)N)cc3)cc2oc1=O: > 100 µM
8) CCOC(=O)c1nc2ccc(C(F)(F)F)cc2nc1Nc1ccc(F)cc1: > 100 µM
9) Cc1cc(=O)n(-c2c(C)cccc2Cl)c(/C=C(\O)c2ccncc2)n1: > 100 µM
10) CC[C@]1(O)CC2CN(CCc3c([nH]c4ccccc34)[C@@](C(=O)OC)(c3cc4c(cc3OC)N(C=O)[C@H]3[C@@](O)(C(=O)OC)[C@H](OC(C)=O)[C@]5(CC)C=CCN6CC[C@]43[C@@H]65)C2)C1 (stereo partly specified): > 50 µM
11) CCO/C(O)=C(/C(=N)N1CCCC1)C(=O)Nc1cccc(Cl)c1: > 100 µM
12) NC(=O)C(=CNC(=S)Nc1ccc(S(=O)(=O)Nc2ccccn2)cc1)C(N)=O: > 100 µM
13) CSC1=C(C(=O)Nc2ccc(C)cc2)C(N)=NC1=O: > 100 µM
14) CCOC(=O)[C@@H]1ON2O[C@H](OC3CCCCC3c3ccccc3)C[C@H]3OC(=O)[C@@H]1C32 (stereo partly specified): > 100 µM
15) COc1ccccc1-n1c(NN)nc2ccc(Br)cc2c1=O: > 100 µM
16) Cc1nc(C)c(N2CCN(C(=O)O)CC2)c(=O)[nH]1: > 100 µM
17) Oc1cc(CN2CCOCCOCCOCCOCC2)c(O)cc1CN1CCOCCOCCOCCOCC1: > 59.2 µM
18) CC(=O)C1(C)CC(C#N)(C#N)C(C#N)=C1N (stereo unspecified): > 100 µM
19) CN(C)C(=O)OC1=CC2CCC(C1)N2C (stereo unspecified): > 100 µM
20) CCN(CC)CCC(CNc1ccnc2cc(Cl)ccc12)c1ccccc1 (stereo unspecified): 14.7 µM
21) CN(C)/C=N\c1nncc2[nH]cnc12: > 100 µM
